test: The drug is tested on the gut metagenome community of MV18 with ENA study accession number: PRJEB31790 and ENA sample accession number: SAMEA5537499 for biotransformation. The drug concentrations were measured over 9 timepoints collected between 0 and 24 hours of incubation by liquid-chromatography-coupled mass spectrometry (LC–MS); type: ADME; parameters: dose 2 uM, timepoint 0, 1, 2, 4, 6, 8, 12, 18, 24 hours; details: 2 µM
endpoint: Bacterial Biotransformation

[[record]]
compound = "C[C@@H]1C[C@H]2[C@@H]3CCC4=CC(=O)C=C[C@]4(C)[C@@]3(F)[C@@H](O)C[C@]2(C)[C@@]1(O)C(=O)CO"
endpoint = "Bacterial Biotransformation"
result = "Compound NOT metabolized"

[[record]]
compound = "CC(=O)OCC(CCn1cnc2cnc(N)nc21)COC(C)=O"
endpoint = "Bacterial Biotransformation"
result = "Compound metabolized"

[[record]]
compound = "COc1ccc([C@@H]2Sc3ccccc3N(CCN(C)C)C(=O)[C@@H]2OC(C)=O)cc1"
endpoint = "Bacterial Biotransformation"
result = "Compound NOT metabolized"

[[record]]
compound = "C#C[C@]1(OC(C)=O)CC[C@H]2[C@@H]3CCC4=CC(=O)CC[C@@H]4[C@H]3CC[C@@]21C [NORETHINDRONE ACETATE]"
endpoint = "Bacterial Biotransformation"
result = "Compound metabolized"


Reference for the values: ChEMBL document CHEMBL5303573
